SYSTEM TESTED: PKB (Homo sapiens, UniProt P31749)
Construct: His; HA; made in house
Sequence (P31749 whole entry, species assumed): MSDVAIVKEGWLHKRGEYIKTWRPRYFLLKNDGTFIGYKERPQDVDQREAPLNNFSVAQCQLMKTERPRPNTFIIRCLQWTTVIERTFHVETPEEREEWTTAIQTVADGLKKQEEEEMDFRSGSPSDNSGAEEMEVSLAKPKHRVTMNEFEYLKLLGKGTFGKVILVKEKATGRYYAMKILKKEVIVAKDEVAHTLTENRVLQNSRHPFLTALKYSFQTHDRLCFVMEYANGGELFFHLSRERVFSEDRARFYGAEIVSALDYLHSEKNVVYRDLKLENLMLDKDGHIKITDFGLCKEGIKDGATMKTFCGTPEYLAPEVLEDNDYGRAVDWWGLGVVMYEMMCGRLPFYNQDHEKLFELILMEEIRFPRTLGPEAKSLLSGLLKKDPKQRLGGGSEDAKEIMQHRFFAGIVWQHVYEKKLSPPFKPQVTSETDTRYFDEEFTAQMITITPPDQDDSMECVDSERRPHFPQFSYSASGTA
TEST PROTOCOL: PKB in vitro kinase activity assay (soluble His-HA-PKB / SPA bead screening)
Type: biochemical
EXPERIMENTAL CONTEXT: chimeric PTR compounds (peptide conjugated to isoquinoline small molecule); read-out: PKB IC50
*1 amine or outer side, *2 acyl side, *3 side chain or, on linkers, in order; H or OH if unused. Where a SMILES comes first, the peptide text is derived from it. Side-chain parts run from the residue outwards. [ ]: non-standard residue; d: D form. The star is where a group is joined. Isoquinoline5sulfonyl = O=S(=O)(c1cccc2cnccc12)*; Ethylenediamine = C(CN[*:2])N[*:1]; hLeu = CC(C)CC[C@H](N)C(=O)O; Nva = CCC[C@H](N)C(=O)O; βAla = NCCC(=O)O
Here the recorded IC50 is given for each entry.
MEASUREMENT NAME: IC50 (µM)

COMPOUND | UNIT LABEL | EXPERIMENTAL VALUE
C[C@@H](O)[C@H](NC(=O)[C@H](CCCNC(=N)N)NC(=O)[C@@H]1CCCN1C(=O)[C@@H](N)CCCNC(=N)N)C(=O)N[C@@H](CCC(=O)NCCNS(=O)(=O)c1cccc2cnccc12)C(=O)N[C@@H](CO)C(=O)N[C@@H](Cc1ccccc1)C(N)=O [PTR 6016] (H-RPRTE([Ethylenediamine-Isoquinoline5sulfonyl])SF-NH2; N-terminus assumed) | µM | 1
C[C@@H](O)[C@H](NC(=O)[C@H](CCCNC(=N)N)NC(=O)[C@@H]1CCCN1C(=O)[C@@H](N)CCCNC(=N)N)C(=O)N[C@@H](CC(=O)NCCNS(=O)(=O)c1cccc2cnccc12)C(=O)N[C@@H](CO)C(=O)N[C@@H](Cc1ccccc1)C(N)=O [compound 6130] (H-RPRTD([Ethylenediamine-Isoquinoline5sulfonyl])SF-NH2; N-terminus assumed) | µM | 9.5
CCC[C@H](NC(=O)[C@H](CCCNC(=N)N)NC(=O)[C@@H]1CCCN1C(=O)[C@@H](N)CCCNC(=N)N)C(=O)N[C@@H](CCC(=O)NCCC(=O)NCCNS(=O)(=O)c1cccc2cnccc12)C(=O)N[C@@H](C)C(=O)N[C@@H](CCC(C)C)C(N)=O [compound 6152] (H-RPR[Nva]E([βAla-Ethylenediamine-Isoquinoline5sulfonyl])A[hLeu]-NH2; N-terminus assumed) | µM | 5
